target: CDK2/cyclin A2 (Homo sapiens); construct: purchased Promega; assay: In vitro CDK2/cyclin A2 enzyme inhibition assay (ADP-Glo); type: biochemical; settings: supplement S1; DMSO = 100; screen at 50 μM
Where Relative activity equals or exceeds 50, the correct label is True; where it does not, the label is False.

Some entries whose results are on file:
- Cc1ccc(NN=C2C(=O)NN=C2Nc2ccccc2)cc1: True
- O=C1NN=C(Nc2ccccc2)C1=NNc1ccc(O)cc1: False
- CC(=NNc1ccc(S(N)(=O)=O)cc1)c1ccc(NN=C2C(=O)NN=C2Nc2ccccc2)cc1: False
- CC(=O)c1ccc(NN=C2C(=O)NN=C2Nc2ccccc2)cc1: True

// next entry
Qu. Check if Relative activity >= 50 (inclusive). Item: `O=C1NN=C(Nc2ccccc2)C1=NNc1ccc(Cl)cc1`
Ans. True
